Origin of measurements: patent EP0007880B1

- Tested on: rats Wistar mâles
- Assay Text: Normolipemic and/or hypoglycemic activity in Triton W.R.-induced hyperlipidemia in fasted rats
- Type: in vivo
- Parameters: unit not given here
- Test Parameters: fasted rats given Triton W.R. 200mg/kg i.v.; product given simultaneously, i.p. 100 mg/kg or oral 500 mg/kg (route not stated per product); blood sampled six hours later
Task for the reader: assign each of the following molecules its reported Cholestérol Estérifié.

# Molecule, Value Measured
data = [
    ("O=S(=O)(CC1(O)CCCCC1)c1ccccc1", "2,06"),
]

Lab note: each molecule below needs its Cholestérol Estérifié filled in.
1. O=S(=O)(CC(O)c1ccc(F)cc1)c1ccccc1 (stereo not shown)
2. O=S(=O)(CCCO)c1ccccc1
3. O=S(=O)(CC(O)c1ccccc1)c1ccc(F)cc1 (stereo not shown)

1: 0,98; 2: 0,99; 3: 0,66

----------
- Test system: rats Wistar mâles
- Assay Text: Normolipemic and/or hypoglycemic activity in Triton W.R.-induced hyperlipidemia in fasted rats
- Type: in vivo
- Design: unit not given here
- Test Parameters: fasted rats given Triton W.R. 200mg/kg i.v.; product given simultaneously, i.p. 100 mg/kg or oral 500 mg/kg (route not stated per product); blood sampled six hours later
Property Measured: Cholestérol Estérifié

Here is how some compounds turned out for Cholestérol Estérifié.
# Compound, Target Entity, Cholestérol Estérifié
rows = [
    ("CCC(C)(O)CS(=O)(=O)c1ccccc1 (centres unmarked)", "rats Wistar mâles", "1,64"),
    ("CC(C)(Oc1ccc(Cl)cc1)C(=O)OCCCS(=O)(=O)c1ccccc1", "rats Wistar mâles", "0,90"),
    ("O=S(=O)(CC(O)c1ccccc1)c1ccccc1 (centres unmarked)", "rats Wistar mâles", "1,89"),
    ("CC(C)(O)CS(=O)(=O)c1ccccc1", "rats Wistar mâles", "1,09"),
]

In the following, a different compound is considered.
Lab note: measured Cholestérol Estérifié of `O=S(=O)(CC1(O)CCCCC1)c1ccc(F)cc1` was 0,73
